Entries and their measured % Binding σ1 10^−8M follow.
- assaySystem: Sigma-1 receptor (Cavia porcellus, UniProt Q60492)
- Construct: from tissue; host or cells: guinea pig brain membranes
- Sequence (Q60492 whole entry): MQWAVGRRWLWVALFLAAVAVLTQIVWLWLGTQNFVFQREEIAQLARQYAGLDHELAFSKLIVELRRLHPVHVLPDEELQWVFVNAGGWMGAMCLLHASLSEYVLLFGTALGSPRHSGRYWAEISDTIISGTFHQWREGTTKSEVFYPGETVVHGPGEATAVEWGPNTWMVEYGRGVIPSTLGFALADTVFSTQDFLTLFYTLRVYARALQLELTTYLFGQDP
- methodDescription: Sigma-1 receptor radioligand binding assay, [3H](+)-pentazocine, guinea pig brain membranes
- measurementParameters: compound at 10^−8M, [3H](+)-pentazocine 0.5 nM
Please state the figure in %; there is no need to write the unit.

Consider the worked cases shown below.
>>> measured("C(/CN1CCC(c2ccccc2)CC1)=C1/CCCc2sccc21")
32.8
>>> measured("C(/CN1CCCCC1)=C1/CCCc2sccc21")
5
>>> measured("CN(C/C=C1\\CCCc2sccc21)Cc1ccccc1")
27.3
>>> measured("CN(C/C=C1\\CCCc2sccc21)CCc1ccccc1")
48.6

Now examine the next entry.
Req: So what does the record say about % Binding σ1 10^−8M for `CC1CCN(C/C=C2\CCCc3sccc32)CC1` ?
Resp: 18.2
